Would you kindly list melting temperature for each of these sequences?
protocol-notes: melting temperature (DSF); higher = more thermostable
Give bare numbers, in C.

// known answers, use as guide
residue-string: VEIGPNPTSTLLNGNGPFSVSSSSVSSWVSGFGGGTIYYPTASGQYGVIAVCPGYTGTSSSISWFARRLATHGFVTIAMNTNSRFDFPDSRATQLAAALNYLLNSSSSTIRSRIRTADRGVAGHSMGGGGTLRASERDSNLKVGIPLTPWHTDKTWGSLSVPQMIFGADGDTVAPASSHARTFYNSIPSSTKKAYALLNNASHFTPNSTDERIGRYGVAFAKRFVDGDTRYEPFLCGAEHSTYATSWKFDTYLSTCPYGGGSEPEPDYPWWYWWR [ESM162]
val: 69.7
//
residue-string: ADNPYERGPAPTEASVEAPRGPYAVSETTVSPLAVTGFGGGTVYYPTSTADGTFGAIAVSPGYTGTQSSIAWLGPRLASQGFVVFTIDTLTTLDQPDSRGRQLLAALDYLTQKSSVRGRIDSTRLGVMGHSMGGGGSLEAAKSRPSLQAAIPLTPWNLDKTWPEVATPTLIFGADGDTIAPVATHAEPFYTSLPASLDRAYLELNGATHFTPNTSNTTIAKYSIAWLKRFIDDDTRYEQFLCPLPRPGLTIEEYRGNCPHTS [TEP117]
val: 40

Attention now shifts to the item below.
Task: Need melting temperature of APDTVVGNPFARGPDPTKESIEAERGPFAVATEKVPGGKGFGGGTIHYPTDTSQGTFGAIAVAPGFTESESAIAWYGPRLASQGFVVITISTNGLWDLPASRADQLLAALRHVTDASQIKSRVDRDRLAVMGHSMGGGGSLIAARNNPALKATIPLTGWNPNTSFSDLKVPTFVVSAQNDFIAPDGSHSRPFYQSLPASLNKAYMRLAGVGHMAPVNPNVTIAKYSISWLKRFVDNDTRYSQFLCPLPTGDPKIAAYEGTCPLS [DP008] , thanks.
Result: 50.5

---

protocol-notes: melting temperature (DSF); higher = more thermostable
parameter-measured: melting temperature
Number first, unit second.

Use the examples below as a reference point.
residue-string: ADNPHQRGPNPTQASITANRGTFATAETSVGGGNGFGAAKIYYPTDTSQGTFGAIAVVPGYTATWAAEGAWMGHWLASFGFVVIGIDTLNRNDFDVARGTQLLAALDYLTQRSSVRTRVDPNRLAVMGHSMGGGGTISAALRWPTLKAAIGLAPYSPSQTTSGLQVPTMLLAGQNDGTSTPASIISLYNNIPASTEKSYLELAGAGHGFPTSNNSVMTRKVIPWMKIFIDQDARYTQFLCPLQDWTGIRSYRSSCPLLPGATFSLAGSASGKCVDVPGRVQTNGTGLIIWTCNGAVNQQWTRTAAGELRIYDNAKCMDANASGPGTRVTINSCNGGNSQKWTVNANGTVTNAASGRCIDTGGTADNAPVVVNTCTGGTSQT [ESM163]
val: 58 C

residue-string: TADSSYQRGPAPTEASVRADRGPFQVARVNVPGAGFGSGTIYYPTDTSQGTFGGVAVSPGFLSPEILIAWLGPRLASHGFVVITFTTNTPTDQPDSRGSQLLAALDYLTTQSPTAVRQRLDNTRLSVIGHSMGGGGALRAANDRPDLQAAVPLGPYHTTKDWSGVRVPTMIIGGQYDSIAPNDQHSERFYNSLDSAPEKAYLRVTGTTHITVGTGTPGVGKYVLSWLKRFVDDDTRYDQFLCPTPSGPDVVEYHSTCPHA [TEP009]
val: 49.3 C

residue-string: ADNPYQRGPDPTRTSVTAVNGPFANTSVSVPTGHGFNGGRIYYPTDTSQGTFGAIAISPGYTALFSAELAWMGPWLASHGFVVIGIETNSRNDFDTARGTQLLAALDYLTQQSPVRDRVDPSRLAVSGHSMGGGGALSAAMRRASLKAVVGITPYSPSSNLANDRVPTMIISGQADTVVTPSYALGLYNSIPATTESVYLEVAGGDHGFMVGRSNPVLVRTMLPFLKMFIDNDTRYSQFLCPLLDNSGVVTYRSTCPLLPTDPTTPPTGTPTPTPTTPAPTTPPPTTPPGSASEIRGTQSNRCIDVPNASRNNGTRVQLYDCNRQTNQAWTYTANKQLQVYGNMC [ESM106]
val: 62.2 C

residue-string: ADQRGPDPTVQSIEAARGPFATSTSRVSSLVSGFGGGTIYYPTDTSQGRFGGVVIAPGYTAGESSIAWLGPRLASQGFVVFTIDTLTRVDQPASRGRQLLAAADYLTQRSDVADRVDPARLAVMGHSMGGGGTLEAAKSRPGLKAIIPLTPWNLDKTWPEITTPTLIFGAQNDSVASVVTHARPFYQSLPATTPRSYLELRGASHFAPNLSNTTIAKYSIAWLKRFVDDDQRYTQFLCPAPADTALSDVRTSCPF [TEP091]
val: 55.6 C

Moving on to another sequence below.
Task: Can you share its melting temperature? I mean this sequence: ADNPYQRGPDPTPASIAADHGPFATAQTTIPKGNGLGGGIVYYPTDTSQGTFGAIAIAPGYGTEWRWYGWLGPRLASFGFVVVGIETNSLSDYADARADQLLAALDWLVTSSPVRDRVDRTRLAVGGHSMGGGGALVAATRRPSLRSAVGMAPYVPDGILRGTSVPTILFGGQADTTVTPAYLASAYATIPATVPRAYPEIAGEGHGFAAGGGGGNSGAFARVMMVWLKVFVDADTRYPPFLCPTLSNTSGISKYQASCPLGPGGTIPPPDTSRLANANAGRCLDASGAGTANGTKVILWTCNHGANQQWNRT [ESM139]
Result: 65.5 C

---

protocol-notes: PET hydrolysis, aromatic products released after 48 h (umol product/mg enzyme); higher = more PET depolymerization activity
condition: substrate: aFilm; 60 °C; pH 5.5
parameter-measured: PET hydrolysis

residue-string: STRNQEPTLQSIEAARGPYEIATQSVPPAVNTGFGGGTIYYPATTGAGKFGAVALSPGYMEKEYSFSWLGTRLASQGFVVFIINTQNSEEFPSARTDELLASLNYLTQTSEVRDRVDPNRLAVMGHSMGGGAALEAAEKNQSLRAVISMTPWNIKTTYSDIKTPTLIIGAQYDNIAPVHDHAQPSYASLPNDLAKSYLELRNGNHFSPNMENTAIARSSTVWLKRFVDGDTRYNKFICPGPTVGDEFNIVQSNCPIL [DP079]
PET hydrolysis: < 3

Task: Request the reported PET hydrolysis associated with ADNPYQRGPDPTPASVAAVNGPFATASVSVPAGYGFGGGMIYYPTDTSQGTFGGIAISPGYTALFSAELAWMGPWLASHGFVVIGIETNSRNDFDEARGTQLLAALDYLTQQSPVRTRVDPNRLAVSGHSMGGGGALNAAIRRPSLKAAVGLAPFLPSSNLANDRVPTMVFAGQQDTVVSPSYVTNLYNSLPATTESAYLEIAGGDHGFPVGRPNQVMIRTMLPFVKIFLDNDTRYSQFLCPLMDSTGVVTYRSTCPLLPPGLPTTPPTSTSSNPTVGPTTPSTTAPTTTPAPGGACTATYRTTNSWPGGFQGEVTITAGSSAINGWTVRWTLGSGQTISQVWNGEVSITGSTVSVRNAPYNGSLPASGSTTFGFLGGGSPSSPSLTCTSP [TEP165]
Result: < 3

---

protocol-notes: PET hydrolysis, aromatic products released after 48 h (umol product/mg enzyme); higher = more PET depolymerization activity
condition: substrate: cryPow; 40 °C; pH 4.5
Record form. Attribute: PET hydrolysis. Fill in for each entry.
Give bare numbers.

Past entries and their recorded results:
residue-string: ADNPYQRGPDPTLASVSAQRGTFATAQVAVPAGDGFGGGMIYYPTDTSQGTFGAVAIVPGYTARFSVEEAWMGHWLASFGFVVIGVETNSTNDFDTARGTQLLAALDYLTQRSSVRDRVDASRQSVVGHSMGGGGALYAAGQRASLKAAVGLAPYKPSGNPTNVRVPTMIISGQNDTVVTPSYATGLYNTLPATTESAYMEFTGADHLFPTRANTLEMRILIPWLKIFVDSDNRYSQFLCPLQDSTGIRGYRSTCPFLPNPTTSPSTTAPTTPPTTPPTTPPTGACSATYRTVNSWPGGFQGEVTVSAGSTPVDGWAVRWTLASGQAVTQVWNGALSVSGSAVTVRNTTYNGSLGANASTTFGFLASGSPTPVSLTCTSP [ESM033]
PET hydrolysis: 9

residue-string: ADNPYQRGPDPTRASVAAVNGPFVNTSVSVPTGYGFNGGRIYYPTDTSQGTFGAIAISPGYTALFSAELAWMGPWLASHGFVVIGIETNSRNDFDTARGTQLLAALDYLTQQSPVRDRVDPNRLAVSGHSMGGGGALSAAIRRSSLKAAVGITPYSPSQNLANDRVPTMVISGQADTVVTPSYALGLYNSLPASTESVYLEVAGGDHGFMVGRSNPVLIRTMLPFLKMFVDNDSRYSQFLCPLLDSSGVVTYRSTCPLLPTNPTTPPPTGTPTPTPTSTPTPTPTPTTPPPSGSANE [ESM091]
PET hydrolysis: 13.5

residue-string: ADNPYERGPNPTQASIAASRGTFATAEVSVGGGNGFAAAKIYYPTDTSQGTFGAIAIVPGYTATWAAEGAWMGPWLASFGFVVIGIDTLSRNDFDTARGTQLLAALDYLTQRSSVRSRVDASRLAVMGHSMGGGGAISAALRRPSLKAAVGLAPFSPSQGTSGMRVPSMLLAGQRDGTVTPSSVRNLYNAIPATTEKAYLELTGAGHGFPTSANSVMMRKVIPWLKIFVDQDTRYQQFLCPLVDWTGITSYQSSCPLIPGGSTGTTYNLVNSSGKCADVNAASQVNGAALLLWTCHTNPNQRWTETSAKELRVYDNPKCMDAGAAQQGTRVTINSCSGGGSQKWTVNANGTVTNDLSGRCLGAAGGATTDNTPLVVASCDGSPGQQWTKQS [TEP093]
PET hydrolysis: 4

API: the following record is the query input.
Task: Any idea what PET hydrolysis was measured for DQIGQAPTASNITGNGSFATTSASISSTVSGFGGGRVYYPTAAGTYPVIAISPGFTATWSSLAWIGPRLSSWGFVVVGIETNSIYDQPASRGNQLLAALNWAVNSSPTAVRSHVDGSRRGVAGHSMGGGGTLEALAADTTGLVKAGVPLAPWNTDKTWNNVSEPVLIVGGQADTVAPVASHSIPFYNTLAGPKTYVELTGQSHFFPQTTNATASRALVAWFKRWVSQDSRFTPFTCGFSGVAVSDFRSNAC [ESM082] ?
Result: 9

meta.source: the supplement of paper PMC12455559
